The reader will find reported koff values listed item by item below.
assayed_target: T1, hIL2Rg-his (Sino Biological, Catalog# 10555) (human, UniProt P31785 23-262)
T1 construct: Bought; also called extracellular domain of hIL2Rg
T1 sequence: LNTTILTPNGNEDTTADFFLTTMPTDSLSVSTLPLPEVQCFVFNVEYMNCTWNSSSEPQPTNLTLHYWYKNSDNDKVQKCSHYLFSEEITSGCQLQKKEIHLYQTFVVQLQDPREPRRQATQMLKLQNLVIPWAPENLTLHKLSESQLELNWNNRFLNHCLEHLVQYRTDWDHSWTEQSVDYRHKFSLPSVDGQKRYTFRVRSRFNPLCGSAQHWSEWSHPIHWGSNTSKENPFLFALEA
assay_method_text: SPR Biacore T200; Mono-Fc VHH captured on Protein A chip, hIL2Rg-his analyte; 1:1 Langmuir fit
The response must be a number in s⁻¹ with no trailing unit.

Tell me the measured koff of hIL-2Rg_VHH15 Mono-Fc VHH (Fc fusion, not shown: a dimerising Fc or GST) QVQLQESGGGLVQPGGSLRLSCAASGFTFSSAHMSWVRQAPGKGREWIASIYSGGGTFYADSVKGRFTISRDNAKNTLYLQLNSLKAEDTAMYYCATNRLHYYSDDDSLRGQGTQVTVSS , please. 0.00251

Tell me the measured koff of hIL-2Rg_VHH20 Mono-Fc VHH (Fc fusion, not shown: a dimerising Fc or GST) QVQLQESGGGSVQAGGSLRLSCTASGFTFDDSDMGWYRQAPGNECELVSTISSDGSTYYADSVKGRFTISQDNAKNTVYLQMNSLKPEDTAVYYCAAEPRGYYSNYGGRRECNYWGQGTQVTVSS , please. 0.0027

Tell me the measured koff of hIL-2Rg_VHH19 Mono-Fc VHH (Fc fusion, not shown: a dimerising Fc or GST) QVQLQESGGGSVQAGGSLRLSCTASGFTFDDREMNWYRQAPGNECELVSTISSDGSTYYADSVKGRFTISQDNAKNTVYLQMDSVKPEDTAVYYCAADFMIAIQAPGAGCWGQGTQVTVSS , please. 0.00693

Tell me the measured koff of hIL-2Rg_VHH22 Mono-Fc VHH (Fc fusion, not shown: a dimerising Fc or GST) QVQLQESGGGLVQPGGSLRLSCTASGFSFSSYPMTWARQAPGKGLEWVSTIASDGGSTAYAASVEGRFTISRDNAKSTLYLQLNSLKTEDTAMYYCTKGYGDGTPAPGQGTQVTVSS , please. 0.00354

Tell me the measured koff of hIL-2Rg_VHH8 Mono-Fc VHH (Fc fusion, not shown: a dimerising Fc or GST) QVQLQESGGGSVQAGGSLRLSCVASGYTFSSYCMGWFRQAPGKEREGVAALGGGSTYYADSVKGRFTISQDNAKNTLYLQMNSLKPEDTAMYYCAAAWVACLEFGGSWYDLARYKHWGQGTQVTVSS , please. 0.000812

Tell me the measured koff of hIL-2Rg_VHH21 Mono-Fc VHH (Fc fusion, not shown: a dimerising Fc or GST) QVQLQESGGGSVQAGGSLRLSCVASGYTSCMGWFRQAPGKEREAVATIYTRGRSIYYADSVKGRFTISQDNAKNTLYLQMNSLKPEDIAMYSCAAGGYSWSAGCEFNYWGQGTQVTVSS , please. 0.00113
